Biological target: Trypanothione reductase (Trypanosoma cruzi, UniProt P28593)
Sequence (P28593 whole entry): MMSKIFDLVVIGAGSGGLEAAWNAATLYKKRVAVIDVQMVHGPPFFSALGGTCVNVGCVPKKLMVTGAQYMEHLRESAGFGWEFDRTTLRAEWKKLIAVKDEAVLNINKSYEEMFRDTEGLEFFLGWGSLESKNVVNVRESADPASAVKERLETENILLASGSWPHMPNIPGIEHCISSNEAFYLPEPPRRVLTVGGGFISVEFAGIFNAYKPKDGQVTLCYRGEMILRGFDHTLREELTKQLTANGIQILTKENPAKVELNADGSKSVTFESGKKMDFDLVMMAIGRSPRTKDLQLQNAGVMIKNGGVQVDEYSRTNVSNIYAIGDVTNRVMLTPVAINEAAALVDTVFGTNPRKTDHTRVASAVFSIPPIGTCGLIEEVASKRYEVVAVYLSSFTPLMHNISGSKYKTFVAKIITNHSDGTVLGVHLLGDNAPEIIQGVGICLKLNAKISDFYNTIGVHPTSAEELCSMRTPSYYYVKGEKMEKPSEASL
Assay: Inhibitory activity against Trypanosoma cruzi trypanothione disulfide reductase, assay in presence of 57 uM T(S)2.
pIC50: −log10 of the molar value.
recordedEndpoint: pIC50

Req: In one line, give reported pIC50 of the entry O=C(O)CCCC=Cc1c(CCCCCC(=O)O)c(O)c2ccccc2c1O .
Resp: < 4.30

Req: In one line, give reported pIC50 of the entry Cc1c(N=CCCN2CCN(C)CC2)c(O)c2ccccc2c1O .
Resp: < 4.24

Req: In one line, give reported pIC50 of the entry Cc1c(C=CCC(=O)NCCCN2CCN(CCCNC(=O)CC=Cc3c(C)c(O)c4cccc(O)c4c3O)CC2)c(O)c2c(O)cccc2c1O .
Resp: 5.64

Req: In one line, give reported pIC50 of the entry Cc1c(N=CCCNCCCCNCCCN)c(O)c2ccccc2c1O .
Resp: 4.55

Req: In one line, give reported pIC50 of the entry Cc1c(C=CC(=O)O)c(O)c2c(O)cccc2c1O .
Resp: < 4.30

Req: In one line, give reported pIC50 of the entry Cc1c(N=CCCCN)c(O)c2ccccc2c1O .
Resp: < 4.24

Req: In one line, give reported pIC50 of the entry Cc1c(N=CCCN2CCN(C)CC2)c(O)c2c(O)cccc2c1O .
Resp: < 4.24

Req: In one line, give reported pIC50 of the entry Cc1c(C=CCC(=O)O)c(O)c2c(O)cccc2c1O .
Resp: < 4.30

Req: In one line, give reported pIC50 of the entry Cc1c(C=CC(=O)NCCCCNCCCNC(=O)C=Cc2c(C)c(O)c3cccc(O)c3c2O)c(O)c2c(O)cccc2c1O .
Resp: 5.54

Req: In one line, give reported pIC50 of the entry CN1CCN(CCCNC(=O)CC=Cc2c(CCCC(=O)NCCCN3CCN(C)CC3)c(O)c3cccc(O)c3c2O)CC1 .
Resp: 4.96

Req: In one line, give reported pIC50 of the entry Cc1c(CC=NC(=O)OC(C)(C)C)c(O)c2ccccc2c1O .
Resp: < 4.30

Req: In one line, give reported pIC50 of the entry Cc1c(N=CCCC=Nc2c(C)c(O)c3ccccc3c2O)c(O)c2ccccc2c1O .
Resp: < 4.24

Req: In one line, give reported pIC50 of the entry Cc1c(N=CCCCN)c(O)c2c(O)cccc2c1O .
Resp: < 4.24

Req: In one line, give reported pIC50 of the entry Cc1c(CC=NC(=O)OC(C)(C)C)c(O)c2c(O)cccc2c1O .
Resp: < 4.60

Req: In one line, give reported pIC50 of the entry Cc1c(C=CCNC(=O)OC(C)(C)C)c(O)c2c(O)cccc2c1O .
Resp: < 4.60

Req: In one line, give reported pIC50 of the entry CN1CCN(CCCNC(=O)C=Cc2c(CCC(=O)NCCCN3CCN(C)CC3)c(O)c3cccc(O)c3c2O)CC1 .
Resp: < 4.30

Req: In one line, give reported pIC50 of the entry Cc1c(N=CCCNCCCCNCCCN)c(O)c2c(O)cccc2c1O .
Resp: 4.55

Req: In one line, give reported pIC50 of the entry Cc1c(C=CCC(=O)NCCCNCCCNC(=O)CC=Cc2c(C)c(O)c3ccccc3c2O)c(O)c2ccccc2c1O .
Resp: 4.96
